# assayNotes: Volume of distribution at steady state in female rat at 8 mg/kg,iv measured upto 24 hrs
# Format: ADME, organism-based
# appliedConditions: in vivo, read-out: Vdss
assayMetric: Vd
Form field: result (number plus unit)

# get_value(readout='Vd', item= "CC(=O)O[C@@]12CO[C@@H]1C[C@H](O)[C@@]1(C)C(=O)[C@H](O)C3=C(C)[C@@H](OC(=O)[C@H](OC(=O)CCC(=O)NCCCC[C@H](NC(=O)CC[C@@H](NC(=O)[C@H](C)NC(=O)/C=C/c4ccc(F)cc4Cl)C(N)=O)C(=O)O)[C@@H](NC(=O)OC(C)(C)C)c4ccccc4)C[C@@](O)([C@@H](OC(=O)c4ccccc4)[C@H]21)C3(C)C" )
0.095 L/kg
